biological target: Vascular endothelial growth factor receptor 1 (Homo sapiens, UniProt P17948); assay: Inhibition of VEGFR1 by HTRF assay
Sequence (P17948 whole entry, looked up): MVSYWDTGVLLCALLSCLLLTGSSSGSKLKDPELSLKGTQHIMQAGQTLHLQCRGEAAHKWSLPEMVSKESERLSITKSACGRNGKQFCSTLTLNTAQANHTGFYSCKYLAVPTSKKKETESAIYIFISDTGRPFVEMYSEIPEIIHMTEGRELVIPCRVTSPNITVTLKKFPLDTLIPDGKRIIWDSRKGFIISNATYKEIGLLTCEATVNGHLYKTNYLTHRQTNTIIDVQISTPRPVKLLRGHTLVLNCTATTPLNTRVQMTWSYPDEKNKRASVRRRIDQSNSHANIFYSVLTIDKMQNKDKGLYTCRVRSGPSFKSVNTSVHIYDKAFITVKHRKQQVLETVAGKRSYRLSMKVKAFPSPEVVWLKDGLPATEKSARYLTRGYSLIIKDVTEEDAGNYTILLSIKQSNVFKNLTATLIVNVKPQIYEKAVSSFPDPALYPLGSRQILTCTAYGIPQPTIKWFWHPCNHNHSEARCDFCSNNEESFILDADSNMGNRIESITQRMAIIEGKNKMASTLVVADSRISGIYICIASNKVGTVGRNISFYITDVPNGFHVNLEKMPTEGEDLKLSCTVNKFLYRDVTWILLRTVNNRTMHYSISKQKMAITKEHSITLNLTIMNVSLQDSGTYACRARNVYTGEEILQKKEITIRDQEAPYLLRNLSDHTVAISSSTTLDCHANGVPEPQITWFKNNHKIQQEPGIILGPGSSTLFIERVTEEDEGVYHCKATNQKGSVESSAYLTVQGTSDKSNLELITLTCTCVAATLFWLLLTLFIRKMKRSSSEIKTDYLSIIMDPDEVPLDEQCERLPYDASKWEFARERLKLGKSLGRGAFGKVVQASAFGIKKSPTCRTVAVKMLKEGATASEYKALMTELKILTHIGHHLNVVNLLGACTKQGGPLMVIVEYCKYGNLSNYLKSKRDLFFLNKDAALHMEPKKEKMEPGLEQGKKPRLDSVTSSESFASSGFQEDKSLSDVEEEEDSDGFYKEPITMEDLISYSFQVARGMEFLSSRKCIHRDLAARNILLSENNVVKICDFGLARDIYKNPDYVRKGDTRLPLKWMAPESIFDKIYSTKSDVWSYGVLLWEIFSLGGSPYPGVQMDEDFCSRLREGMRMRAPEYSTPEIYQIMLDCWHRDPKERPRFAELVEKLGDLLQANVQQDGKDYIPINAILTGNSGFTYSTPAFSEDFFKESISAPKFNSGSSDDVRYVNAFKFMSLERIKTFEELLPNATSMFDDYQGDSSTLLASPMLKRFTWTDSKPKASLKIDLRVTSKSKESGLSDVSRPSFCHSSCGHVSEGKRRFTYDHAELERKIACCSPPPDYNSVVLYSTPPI
Parameter: IC50. Scope: all listed entries.
parameter: IC50 (nM)

1. Cc1noc(NCc2ccncc2)c1C(=O)Nc1ccc(C(C)C)cc1    760
2. Cn1cnc(NCc2ccncc2)c1C(=O)Nc1ccc(Cl)c(C(F)(F)F)c1    1260
3. Cc1cc(NC(=O)c2c(C)noc2NCc2ccncc2)ccc1C(F)(F)F    1440
4. CC(C)c1ccc(NC(=O)c2c(NCc3ccncc3)ncn2C)cc1    270
5. Cc1noc(NCc2ccncc2)c1C(=O)Nc1ccc(C(C)(C)C)cc1    420
6. Cc1noc(NCc2ccncc2)c1C(=O)Nc1ccc(Cl)c(Cl)c1    1250
7. Cn1cnc(NCc2ccncc2)c1C(=O)Nc1ccc(OC(F)(F)F)cc1    1430
8. Cn1ncc(NCc2ccncc2)c1C(=O)Nc1cccc(OC(F)(F)F)c1    2440
9. Cn1ncc(NCc2ccncc2)c1C(=O)Nc1ccc(Cl)c(Cl)c1    360

###

molecular target: Vascular endothelial growth factor receptor 2 (Homo sapiens, UniProt P35968); test: Inhibition of VEGFR2 by cell-based assay; format: functional
Sequence (P35968 whole entry): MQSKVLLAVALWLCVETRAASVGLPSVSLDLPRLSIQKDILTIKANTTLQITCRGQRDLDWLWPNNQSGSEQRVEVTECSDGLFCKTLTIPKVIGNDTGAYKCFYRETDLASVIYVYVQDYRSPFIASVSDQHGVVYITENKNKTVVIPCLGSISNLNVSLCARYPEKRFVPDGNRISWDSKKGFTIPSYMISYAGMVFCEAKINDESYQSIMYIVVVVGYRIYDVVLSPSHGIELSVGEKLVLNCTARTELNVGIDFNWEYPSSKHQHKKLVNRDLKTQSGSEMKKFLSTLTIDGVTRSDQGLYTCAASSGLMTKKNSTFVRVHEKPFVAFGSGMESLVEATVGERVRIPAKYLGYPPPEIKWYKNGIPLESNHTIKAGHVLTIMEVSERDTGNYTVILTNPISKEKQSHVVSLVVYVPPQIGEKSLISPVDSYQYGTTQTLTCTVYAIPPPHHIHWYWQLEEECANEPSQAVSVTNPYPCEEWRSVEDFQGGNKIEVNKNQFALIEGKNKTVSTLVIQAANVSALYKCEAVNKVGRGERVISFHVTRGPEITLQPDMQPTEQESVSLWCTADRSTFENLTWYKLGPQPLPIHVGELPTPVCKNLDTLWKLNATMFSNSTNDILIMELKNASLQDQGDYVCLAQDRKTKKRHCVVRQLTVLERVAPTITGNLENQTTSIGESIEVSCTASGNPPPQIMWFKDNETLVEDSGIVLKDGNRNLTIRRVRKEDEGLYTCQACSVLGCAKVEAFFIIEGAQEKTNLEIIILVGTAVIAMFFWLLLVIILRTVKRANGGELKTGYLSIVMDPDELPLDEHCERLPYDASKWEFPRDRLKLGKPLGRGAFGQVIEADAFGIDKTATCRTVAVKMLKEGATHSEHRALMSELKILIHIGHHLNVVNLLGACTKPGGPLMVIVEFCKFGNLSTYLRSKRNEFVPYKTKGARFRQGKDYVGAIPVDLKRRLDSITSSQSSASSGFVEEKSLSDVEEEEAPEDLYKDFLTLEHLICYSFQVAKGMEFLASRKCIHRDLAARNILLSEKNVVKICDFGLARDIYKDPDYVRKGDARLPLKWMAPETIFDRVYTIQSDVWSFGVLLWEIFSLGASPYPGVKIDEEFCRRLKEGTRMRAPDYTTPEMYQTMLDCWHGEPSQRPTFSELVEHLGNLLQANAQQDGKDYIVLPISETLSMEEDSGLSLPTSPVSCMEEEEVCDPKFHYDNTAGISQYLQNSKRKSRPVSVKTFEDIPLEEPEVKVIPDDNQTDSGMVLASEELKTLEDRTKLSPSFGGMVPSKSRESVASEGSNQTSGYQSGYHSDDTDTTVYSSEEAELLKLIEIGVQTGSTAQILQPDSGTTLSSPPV
pIC50: −log10 of the molar value.
parameter: pIC50

1. Cn1cnc(NCc2ccncc2)c1C(=O)NCc1ccc2c(c1)OCO2    6.13
2. Cc1ccc(NC(=O)c2c(NCc3ccncc3)cnn2C)cc1C(F)(F)F    6.99
3. Cn1ncc(NCc2ccncc2)c1C(=O)Nc1cnc2ccccc2c1    5.94
4. Cn1ncc(NCc2ccncc2)c1C(=O)Nc1cccc(C(F)(F)F)c1    5.87
5. Cn1cnc(NCc2ccncc2)c1C(=O)Nc1cnc2ccccc2c1    6.04
6. Cn1cnc(NCc2ccncc2)c1C(=O)Nc1cccc(OC(F)(F)F)c1    6.46
7. Cn1ncc(NCc2ccncc2)c1C(=O)Nc1cc(C(F)(F)F)cc(C(F)(F)F)c1    6.68
8. Cc1noc(NCc2ccncc2)c1C(=O)Nc1ccc(C(F)(F)F)c(Cl)c1    6.49
9. Cn1cnc(NCc2ccncc2)c1C(=O)Nc1ccc(Cl)c(Cl)c1    7.02
10. Cc1noc(NCc2ccncc2)c1C(=O)Nc1cnc2ccccc2c1    5.45
11. Cn1ncc(NCc2ccncc2)c1C(=O)Nc1ccc(Cl)c(Cl)c1    7.09
12. Cn1ncc(NCc2ccncc2)c1C(=O)Nc1ccc(C(C)(C)C)cc1    7.35
13. Cn1ncc(NCc2ccncc2)c1C(=O)Nc1ccc(Cl)c(C(F)(F)F)c1    6.96
14. Cn1cnc(NCc2ccncc2)c1C(=O)Nc1ccc(OC(F)(F)F)cc1    6.96
15. Cc1noc(NCc2ccncc2)c1C(=O)Nc1cccc(C(F)(F)F)c1    5.64
16. Cn1ncc(NCc2ccncc2)c1C(=O)Nc1cccc(OC(F)(F)F)c1    6.33
17. Cn1ncc(NCc2ccncc2)c1C(=O)Nc1ccc(C(F)(F)F)c(Cl)c1    7.10
18. CC(C)c1ccc(NC(=O)c2c(NCc3ccncc3)ncn2C)cc1    7.12
19. Cn1ncc(NCc2ccncc2)c1C(=O)Nc1ccc(OC(F)(F)F)cc1    7.19
20. Cc1ccc(NC(=O)c2c(NCc3ccncc3)ncn2C)c(F)c1    5.90
21. Cn1ncc(NCc2ccncc2)c1C(=O)Nc1ccc(Cl)cc1    6.00

###

target: Vascular endothelial growth factor receptor 2 (Homo sapiens); assay: Inhibition of VEGFR2 by HTRF assay
pIC50: −log10 of the molar value.
parameter: pIC50

1) Cn1ncc(NCc2ccncc2)c1C(=O)Nc1cc(C(F)(F)F)cc(C(F)(F)F)c1    5.95
2) Cn1ncc(NCc2ccncc2)c1C(=O)Nc1cnc2ccccc2c1    6.55
3) Cn1ncc(NCc2ccncc2)c1C(=O)Nc1cccc(Cl)c1    5.69
4) Cc1noc(NCc2ccncc2)c1C(=O)Nc1ccc(Cc2ccccc2)cc1    5.24
5) Cn1ncc(NCc2ccncc2)c1C(=O)Nc1ccc(C(F)(F)F)cc1    6.55
6) COc1ccc(NC(=O)c2c(C)noc2NCc2ccncc2)cc1OC    5.92
7) Cc1noc(NCc2ccncc2)c1C(=O)Nc1ccc(C(C)(C)C)cc1    6.55
8) Cn1cnc(NCc2ccncc2)c1C(=O)Nc1ccc(Cl)c(Cl)c1    6.43
9) Cc1ccc(NC(=O)c2c(NCc3ccncc3)ncn2C)cc1C(F)(F)F    6.47
10) Cc1noc(NCc2ccncc2)c1C(=O)Nc1cnc2ccccc2c1    6.03
11) Cn1ncc(NCc2ccncc2)c1C(=O)Nc1ccc(C(C)(C)C)cc1    6.89
12) Cc1noc(NCc2ccncc2)c1C(=O)Nc1ccc(C(F)(F)F)c(Cl)c1    6.25
13) Cc1noc(NCc2ccncc2)c1C(=O)Nc1ccc(C(F)(F)F)c(C(F)(F)F)c1    5.37
14) COc1ccc(NC(=O)c2c(NCc3ccncc3)ncn2C)cc1OC    6.68
15) Cc1ccc(NC(=O)c2c(NCc3ccncc3)ncn2C)c(F)c1    6.08
16) Cn1cnc(NCc2ccncc2)c1C(=O)Nc1cccc(Cl)c1    5.69
17) Cn1ncc(NCc2ccncc2)c1C(=O)Nc1ccc(Cl)cc1    5.34
18) Cn1cnc(NCc2ccncc2)c1C(=O)Nc1cccc(C(F)(F)F)c1    6.19

###

Parameter: Papp. Scope: all listed entries.
assay: Intrinsic permeability across Caco-2 cell monolayers; settings: human
parameter: Papp (×10⁻⁶ cm/s)

1) Cn1cnc(NCc2ccncc2)c1C(=O)Nc1ccc(C(C)(C)C)cc1    7.55
2) Cc1cc(NC(=O)c2c(NCc3ccncc3)ncn2C)ccc1C(F)(F)F    7.1
3) CC(C)c1ccc(NC(=O)c2c(NCc3ccncc3)ncn2C)cc1    6.2
4) O=C(Nc1cnc2ccccc2c1)c1ccccc1NCc1ccncc1    2.88
5) COc1ccc(NC(=O)c2c(NCc3ccncc3)ncn2C)cc1OC    8.22
6) Cn1ncc(NCc2ccncc2)c1C(=O)Nc1ccc(OC(F)(F)F)cc1    5.42
7) Cn1ncc(NCc2ccncc2)c1C(=O)Nc1ccc(Cl)c(Cl)c1    6.73
8) Cn1cnc(NCc2ccncc2)c1C(=O)Nc1ccc(Cl)c(Cl)c1    7.03
9) Cn1ncc(NCc2ccncc2)c1C(=O)Nc1ccc(C(C)(C)C)cc1    6.25

###

Parameter: log10 of IC50. Scope: all listed entries.
biological target: Vascular endothelial growth factor receptor 1 (Homo sapiens, UniProt P17948); experiment: Inhibition of VEGFR1 by HTRF assay
parameter: log10 of IC50 (log10 of the value in µM)

1. Cn1ncc(NCc2ccncc2)c1C(=O)Nc1ccc(C(F)(F)F)cc1    -0.51
2. Cc1cc(NC(=O)c2c(NCc3ccncc3)ncn2C)ccc1C(F)(F)F    -0.29
3. COc1ccc(NC(=O)c2c(C)noc2NCc2ccncc2)cc1OC    0.53
4. Cn1ncc(NCc2ccncc2)c1C(=O)Nc1cccc(Cl)c1    0.51
5. Cc1noc(NCc2ccncc2)c1C(=O)Nc1ccc(C(F)(F)F)c(Cl)c1    0.05
6. Cn1ncc(NCc2ccncc2)c1C(=O)Nc1ccc(Cl)c(C(F)(F)F)c1    0.13
7. Cn1cnc(NCc2ccncc2)c1C(=O)Nc1cccc(Cl)c1    0.51
8. Cc1ccc(NC(=O)c2c(NCc3ccncc3)ncn2C)c(F)c1    0.13
9. Cc1noc(NCc2ccncc2)c1C(=O)Nc1ccc(OC(F)(F)F)cc1    0.55
10. CC(C)c1ccc(NC(=O)c2c(NCc3ccncc3)cnn2C)cc1    -0.36

###

target: Vascular endothelial growth factor receptor 2 (Homo sapiens, UniProt P35968); assay: Inhibition of VEGFR2 by cell-based assay; type: functional
pIC50: −log10 of the molar value.
parameter: pIC50

1. Cc1cc(NC(=O)c2c(NCc3ccncc3)cnn2C)ccc1C(F)(F)F    7.16
2. CC(C)c1ccc(NC(=O)c2c(NCc3ccncc3)cnn2C)cc1    7.06
3. COc1ccc(NC(=O)c2c(NCc3ccncc3)cnn2C)cc1OC    7.04
4. Cc1noc(NCc2ccncc2)c1C(=O)Nc1ccc(C(C)C)cc1    6.46
5. COc1ccc(NC(=O)c2c(NCc3ccncc3)ncn2C)cc1OC    7.24
6. Cn1cnc(NCc2ccncc2)c1C(=O)Nc1ccc(C(F)(F)F)c(C(F)(F)F)c1    6.96
7. Cn1ncc(NCc2ccncc2)c1C(=O)Nc1ccc(C(F)(F)F)cc1    6.89
8. Cn1cnc(NCc2ccncc2)c1C(=O)Nc1ccc(C(F)(F)F)cc1    5.02

###

molecular target: Vascular endothelial growth factor receptor 2 (Homo sapiens); assay: Inhibition of VEGFR2 by HTRF assay
parameter: log10(IC50) (log10 of the value in nM)

1) Cn1ncc(NCc2ccncc2)c1C(=O)Nc1cccc(C(F)(F)F)c1    2.88
2) Cn1ncc(NCc2ccncc2)c1C(=O)Nc1ccc(C(F)(F)F)c(Cl)c1    2.32
3) Cc1cc(NC(=O)c2c(C)noc2NCc2ccncc2)ccc1C(F)(F)F    2.94
4) Cn1cnc(NCc2ccncc2)c1C(=O)Nc1ccc(C(F)(F)F)c(Cl)c1    2.46
5) Cn1cnc(NCc2ccncc2)c1C(=O)Nc1cccc(OC(F)(F)F)c1    2.88
6) Cc1noc(NCc2ccncc2)c1C(=O)Nc1cccc(C(F)(F)F)c1    3.19
7) Cn1cnc(NCc2ccncc2)c1C(=O)Nc1ccc(C(F)(F)F)cc1    3.30
8) Cc1noc(NCc2ccncc2)c1C(=O)Nc1ccc(C(F)(F)F)cc1    2.57
9) Cc1noc(NCc2ccncc2)c1C(=O)Nc1ccc(OC(F)(F)F)cc1    3.33
10) CC(C)c1ccc(NC(=O)c2c(NCc3ccncc3)cnn2C)cc1    2.46
11) Cn1cnc(NCc2ccncc2)c1C(=O)Nc1cnc2ccccc2c1    2.36
12) Cn1ncc(NCc2ccncc2)c1C(=O)Nc1ccc(Cc2ccccc2)cc1    3.75
13) CC(C)c1ccc(NC(=O)c2c(NCc3ccncc3)ncn2C)cc1    2.26
14) Cn1cnc(NCc2ccncc2)c1C(=O)Nc1ccc(Cl)cc1    2.40
15) Cc1cc(NC(=O)c2c(NCc3ccncc3)ncn2C)ccc1C(F)(F)F    2.32
16) Cc1noc(NCc2ccncc2)c1C(=O)Nc1ccc(C(C)C)cc1    2.64
17) Cn1cnc(NCc2ccncc2)c1C(=O)Nc1ccc(OC(F)(F)F)cc1    3.06
18) Cn1cnc(NCc2ccncc2)c1C(=O)Nc1ccc(Oc2ccccc2)cc1    3.63
19) Cn1cnc(NCc2ccncc2)c1C(=O)Nc1ccc(C(F)(F)F)c(C(F)(F)F)c1    2.76
20) Cn1ncc(NCc2ccncc2)c1C(=O)Nc1ccc(C(F)(F)F)c(C(F)(F)F)c1    2.92
21) Cn1cnc(NCc2ccncc2)c1C(=O)Nc1ccc(Cl)c(C(F)(F)F)c1    2.98
22) Cn1ncc(NCc2ccncc2)c1C(=O)Nc1ccc(Cl)c(C(F)(F)F)c1    3.05
